- experimental-target: T1, recombinant human CD14 (B294801, histidine tagged) (Homo sapiens, UniProt P08571)
- T1 construct: His; purchased Shanghai BaiYing Biotechnology Co., Ltd B294801 (Batch number 20200518A22)
- T1 sequence (P08571 20-345): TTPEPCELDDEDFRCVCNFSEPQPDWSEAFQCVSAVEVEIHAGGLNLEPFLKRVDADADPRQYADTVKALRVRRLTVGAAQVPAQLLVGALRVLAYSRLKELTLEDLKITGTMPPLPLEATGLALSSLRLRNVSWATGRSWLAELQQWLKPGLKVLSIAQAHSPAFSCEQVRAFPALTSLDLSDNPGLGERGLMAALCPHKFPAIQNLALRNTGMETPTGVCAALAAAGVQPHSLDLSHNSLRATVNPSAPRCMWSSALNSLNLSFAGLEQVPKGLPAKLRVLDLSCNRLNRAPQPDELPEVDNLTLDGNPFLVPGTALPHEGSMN
- assay-name: Biacore 8K kinetic and affinity test of humanized antibodies (Example 8)
- Assay type: binding
- run-conditions: Biacore 8K, KD=koff/kon, analyte B294801 0.78125-25 nM, capture 1 μg/mL
reported-endpoint: pKd
// pKd is dimensionless: -log10 of concentration (M)

Problem: Recall and state the measured pKd for D6DD3D013: humanized anti-CD14 antibody; VH SEQ ID NO: 49, VL SEQ ID NO: 51 (antibody, V domains shown) VH: QVQLQESGPGLVKPSETLSLTCTVSGGSISSDSAWNWIRQPPGKGLEWIGYISYSGSTSYNPSLKSRVTISRDTSKNQFSLKLSSVTAADTAVYYCVRGLRFAYWGQGTLVTVSS VL: DIQLTQSPSSLSASVGDRVTITCRASESVDSYVNSFLHWYQQKPGKAPKLLIYRASNLQSGVPSRFSGSGSRTDFTLTISSLQPEDVATYYCQQSNEDPYTFGQGTKLEIK .
Result: 8.79
